Target: PTH-2 receptor (Homo sapiens, UniProt P49190)
Construct: expressed in transfected cells; host or cells: COS-7 cells, transient transfection, vector pcDNAI/Amp
Sequence (P49190 25-550): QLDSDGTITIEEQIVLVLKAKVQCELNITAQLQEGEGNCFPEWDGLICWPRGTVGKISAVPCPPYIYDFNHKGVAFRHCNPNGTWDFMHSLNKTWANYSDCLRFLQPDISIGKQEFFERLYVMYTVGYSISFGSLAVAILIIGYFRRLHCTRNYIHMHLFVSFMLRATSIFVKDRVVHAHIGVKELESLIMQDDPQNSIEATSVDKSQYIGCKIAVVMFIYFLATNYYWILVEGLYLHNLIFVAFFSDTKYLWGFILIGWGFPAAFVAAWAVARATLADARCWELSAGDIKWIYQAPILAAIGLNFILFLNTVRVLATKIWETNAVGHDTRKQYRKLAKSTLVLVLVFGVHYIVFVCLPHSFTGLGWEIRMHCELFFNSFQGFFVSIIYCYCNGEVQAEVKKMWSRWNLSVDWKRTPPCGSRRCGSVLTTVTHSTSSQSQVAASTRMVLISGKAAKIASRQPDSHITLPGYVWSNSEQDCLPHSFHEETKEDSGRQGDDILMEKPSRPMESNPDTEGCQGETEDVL
Experiment: Competition radioligand binding, COS-7 cells transfected with human PTH-2 receptor
Conditions: COS-7 cells, radioligand 125I-[Nle8,21,Y34]rPTH-(1-34)NH2, 2 hours at room temperature, mean ± s.e.m.
Procedure: The cDNAs encoding the human PTH/PTHrP receptor (Schipani, E. et al., Endocrinology 132:2157-2165 (1993)) and the human PTH-2 receptor (Usdin, T. et al., J. Biol. Chem. 270:15455-15458 (1995)) were carried on the expression vectors pcDNA-1 and pcDNAI/Amp (InVitrogen, San Diego, Calif.), respectively. […] Binding reactions were performed as described previously. […] Nonspecific binding of tracer (NSB), determined in wells containing 1 μM of [NleTyr^8,21,Tyr^34]rPTH-(1-34)NH2, was ˜1% of total counts added. […]
pIC50: −log10 of the molar value. Where no end group is shown, it is not given here.
observed property: pIC50

The measured pIC50 associated with LNSMERVEFLRKKLQDVHNY-NH2 [[F23, Y34]hPTH-(15-34)NH2] reads < 5.00

Reference source for all entries: patent US6362163B1
